# TESTED_ON: UniProtKB P22001
# PROTOCOL: Kv1.3 potassium channel blocker activity, automated whole-cell patch clamp (Patchliner)
# STUDY_CONDITIONS: CHO-K1 cells stably expressing Kv1.3; whole cell current inhibition; read-out: Kv1.3_IC50
QUANTITY_NAME: IC50

Record request: IC50 value, item O=C(NC(c1cc(Cl)c(Cl)cc1O)C1CCNCC1)C(F)(F)F (stereo not drawn) [Compound 22]
< 10 µM

Record request: IC50 value, item N[C@@H](c1cc(Cl)c(Cl)cc1O)C1CCN(S(=O)(=O)C2CCNC2)CC1 (stereo partly drawn) [Compound 110]
< 0.5 µM

Record request: IC50 value, item N[C@H](c1c(O)cc(Cl)c(Cl)c1Cl)C1CCNCC1 (single isomer, unassigned) [Compound 60, Trifluoroacetic Acid]
< 30 µM

Record request: IC50 value, item Cc1cc(O)c([C@H](N)C2CCN(C(=O)c3c[nH]c(=O)c(CO)c3)CC2)cc1Cl [Compound 207]
< 0.5 µM

Record request: IC50 value, item N[C@@H](c1cc(Cl)c(Cl)cc1O)C1CCN(C(=O)[C@@H]2CC[C@H](O)C2)CC1 (single isomer, unassigned; isomer 2) [Compound 179]
< 0.5 µM

Record request: IC50 value, item CC[C@H](N)C(=O)N1CCC([C@@H](N)c2cc(Cl)c(Cl)cc2O)CC1 [Compound 91, trifluoroacetic acid]
< 0.5 µM

Record request: IC50 value, item N[C@H](c1cc(Cl)c(Cl)cc1O)C1CC2CC1CN2C(=O)[C@H](O)CO (stereo partly drawn) [Compound 316, Trifluoroacetic Acid]
< 10 µM

Record request: IC50 value, item Nc1nc(N2CCC([C@@H](N)c3cc(Cl)c(Cl)cc3O)CC2)no1 [Compound 183]
< 0.5 µM

Record request: IC50 value, item N[C@H](c1cc(Cl)c(Cl)cc1O)C1CCNCC1 (single isomer, unassigned) [Compound 15, Trifluoroacetic Acid]
< 10 µM

Record request: IC50 value, item N[C@@H](c1cc(Cl)c(Cl)cc1O)C1CCN(C(=O)C2(O)CC2)CC1 [Compound 140, trifluoroacetic acid]
< 10 µM

Record request: IC50 value, item N[C@@H](c1cc(Cl)c(Cl)cc1O)C1CCN(C(=O)c2cccc(=O)[nH]2)CC1 [Compound 178, formic acid]
< 0.5 µM

Record request: IC50 value, item Cc1cc(O)c([C@H](N)C2CCN(C(=O)c3ccc4c(c3)NC(=O)CO4)CC2)cc1Cl [Compound 269]
< 10 µM

Record request: IC50 value, item N[C@@H](c1cc(Cl)c(Cl)cc1O)C1CCNCC1 (single isomer, unassigned) [Compound 16, Trifluoroacetic Acid]
< 0.5 µM

Record request: IC50 value, item CN(C)C(c1cc(Cl)c(Cl)cc1O)C1CCN(C(=O)[C@H](O)CO)CC1 (stereo partly drawn) [Compound 193, Trifluoroacetic Acid]
< 30 µM

Record request: IC50 value, item Cc1cc([C@H](N)C2CCN(C(=O)[C@H](O)CO)CC2)c(O)cc1Cl [Compound 198]
< 10 µM

---

# TESTED_ON: Kv1.3 potassium channel (Homo sapiens, UniProt P22001)
# Sequence (P22001 whole entry): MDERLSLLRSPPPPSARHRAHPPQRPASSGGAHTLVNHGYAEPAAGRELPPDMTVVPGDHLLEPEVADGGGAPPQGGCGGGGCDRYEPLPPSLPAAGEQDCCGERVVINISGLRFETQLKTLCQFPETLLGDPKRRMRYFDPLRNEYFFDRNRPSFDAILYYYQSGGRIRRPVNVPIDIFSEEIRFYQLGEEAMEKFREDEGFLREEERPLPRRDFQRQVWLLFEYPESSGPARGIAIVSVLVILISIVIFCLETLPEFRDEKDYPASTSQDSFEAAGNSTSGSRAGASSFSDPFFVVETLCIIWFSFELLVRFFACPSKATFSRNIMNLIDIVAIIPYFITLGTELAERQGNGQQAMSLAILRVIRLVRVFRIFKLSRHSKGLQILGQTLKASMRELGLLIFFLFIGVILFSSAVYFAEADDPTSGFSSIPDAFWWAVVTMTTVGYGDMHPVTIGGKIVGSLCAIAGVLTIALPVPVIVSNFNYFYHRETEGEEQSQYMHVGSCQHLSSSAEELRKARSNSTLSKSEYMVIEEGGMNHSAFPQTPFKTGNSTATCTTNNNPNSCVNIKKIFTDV
# PROTOCOL: Kv1.3 potassium channel blocker activity, automated whole-cell patch clamp (Patchliner)
# STUDY_CONDITIONS: CHO-K1 cells stably expressing Kv1.3; whole cell current inhibition; read-out: Kv1.3_IC50
pIC50: −log10 of the molar value.
QUANTITY_NAME: pIC50

Record request: pIC50 value, item N[C@@H](c1cc(Cl)c(Cl)cc1O)C1CCN(C(=O)[C@@H]2CNC(=O)CO2)CC1 [Compound 229, Trifluoroacetic Acid]
> 5.00

Record request: pIC50 value, item O=C([C@H]1CCNC1)N1CCCC(C(O)c2cc(Cl)c(Cl)cc2O)CC1 (stereo partly shown) [Compound 128]
> 5.00

Record request: pIC50 value, item C[C@@H](N)C(=O)N1CCC([C@@H](N)c2cc(Cl)c(Cl)cc2O)CC1 (single isomer, unassigned) [Compound 69]
> 6.30

Record request: pIC50 value, item Cc1cc(O)c([C@H](N)C2CCN(C(=O)c3c[nH]c(=O)c(Cl)c3)CC2)c(F)c1Cl [Compound 264, Trifluoroacetic Acid]
> 5.00

Record request: pIC50 value, item NC(=O)N1CCC(C(N)c2cc(Cl)c(Cl)cc2O)CC1 (stereo not shown) [Compound 53]
> 6.30

Record request: pIC50 value, item Cc1cc(O)c([C@H](N)C2CCN(C(=O)c3ccc4[nH]c(=O)oc4c3)CC2)cc1Cl [Compound 271]
> 5.00

Record request: pIC50 value, item NC(c1cc(Cl)c(Cl)cc1O)C1CCN(C(=O)CO)CC1 (stereo not shown) [Compound 47]
> 6.30
